- Tested on: BALB/c mice
- assay text: Anti-peptide antibody response (ELISA) in BALB/c mice immunized with peptide multimers
- Type: in vivo
- applied conditions: high molecular weight forms of the peptides
quantity kind: anti-peptide antibody response (in words)

sequence text	reading
VQCTHGIRPVVSTQ [Peptide 117]	high antibody titers
CVPTNPVPQEVV [Peptide 107]	high antibody titers
SLKPCVKLTPLC [Peptide 112]	high antibody titers
KKFNGTGPCTN [Peptide 115]	high antibody titers
CRIKQIINMWQGVGKAMYA [Peptide 65, gp160 aa 417-435; polymeric form of the T-helper cell peptide]	high antibody titers
VLENVTENFNM [Peptide 108]	high antibody titers
FEPIPIHYCAFPGF [Peptide 114]	high antibody titers
NNMVEQMHEDI [Peptide 109]	high antibody titers
GVPVWKEATTLFC [Peptide 105]	high antibody titers
AHKVWATHACV [Peptide 106]	high antibody titers
EQMHEDIISLWDQ [Peptide 110]	high antibody titers

###

- Tested on: PLN cells from B6C3F1 mice
- assay text: In vitro proliferation (3H-TdR) of PLN cells from immunized B6C3 F1 mice
- Format: in vivo
- Parameters: key: −: cpm values are corrected and categorized according to unrelated antigen response in vitro.; •: Not determined.; +: cpm values are corrected and categorized according to unrelated antigen response in vitro.; ++: cpm values are corrected and categorized according to unrelated antigen response in vitro.; +++: cpm values are corrected and categorized according to unrelated antigen response in vitro.; ++++: cpm values are corrected and categorized according to unrelated antigen response in vitro
- applied conditions: in vitro antigen: analogous peptide
quantity kind: In Vitro Proliferation of PLN Cells from B6C3F1, Analogous Peptide

sequence text	reading
AHKVWATHACV [Peptide 106]	+++
CVPTNPVPQEVV [Peptide 107]	++
NNMVEQMHEDI [Peptide 109]	++
LWDQSLKPCVKLT [Peptide 111]	+
EQMHEDIISLWDQ [Peptide 110]	++

###

- Test system: PLN cells from B6C3F1 mice
- assay text: In vitro proliferation (3H-TdR) of PLN cells from immunized B6C3 F1 mice
- Assay type: in vivo
- Design: key: −: cpm values are corrected and categorized according to unrelated antigen response in vitro.; •: Not determined.; +: cpm values are corrected and categorized according to unrelated antigen response in vitro.; ++: cpm values are corrected and categorized according to unrelated antigen response in vitro.; +++: cpm values are corrected and categorized according to unrelated antigen response in vitro.; ++++: cpm values are corrected and categorized according to unrelated antigen response in vitro
- applied conditions: in vitro antigen: GP 160
quantity kind: In Vitro Proliferation of PLN Cells from B6C3F1, GP 160

sequence text	reading
GTGPCTNVSTVQC [Peptide 116]	−
KKFNGTGPCTN [Peptide 115]	+
YLRDQQLLGIWGC [Peptide 61, gp160 aa 586-598]	+
CVPTNPVPQEVV [Peptide 107]	++
VQCTHGIRPVVSTQ [Peptide 117]	−
SVITQACSKVSFE [Peptide 113]	+
NNMVEQMHEDI [Peptide 109]	•
SLKPCVKLTPLC [Peptide 112]	+
EQMHEDIISLWDQ [Peptide 110]	−
VLENVTENFNM [Peptide 108]	+
FEPIPIHYCAFPGF [Peptide 114]	−
FLGFLGAAGSTMGAASLTLTVQANQ [Peptide 63, gp160 aa 519-543]	++
GVPVWKEATTLFC [Peptide 105]	+++
